Origin of the recorded values: PubChem BioAssay AID488965

# Test system: PvdQ acylase [Pseudomonas aeruginosa LESB58]
# protocol details: P. aeruginosa PvdQ acylase inhibitors, primary screen, biochemical, fluorescence, plate reader and imaging, single point (AID 488965);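 further: 0% = vehicle neutral wells and 100% = reference inhibitor wells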
# study conditions: purified PvdQ acylase, at 10 µM, stronger effect = higher value
Hit rate of the full screen: of about 340,000 compounds, about 210 (0.062%) were called active. This excerpt belongs to a sample that is enriched for actives.
measured property: inhibition (%)
Provide only the numeric value, understood in %.

{"molecule": "COC(=O)C[n+]1cccc2ccccc21", "inhibition, %": -19.7}
{"molecule": "CC1Cc2ccccc2N1S(=O)(=O)c1ccc(Cl)nc1 (stereo not drawn)", "inhibition, %": 24.3}
{"molecule": "CCCC(=O)N1CCN(c2nnc(-c3ccc(C)cc3)c3ccccc23)CC1", "inhibition, %": -23.6}
{"molecule": "COC(=O)c1c(NC(=O)CN2C(=O)NC(CCc3ccccc3)C2=O)sc2c1CCCCC2 (stereo not drawn)", "inhibition, %": 2.45}
{"molecule": "COc1ccc(CNS(=O)(=O)c2ccc(NC(=O)N3CCCCC3)cc2)cc1", "inhibition, %": 1.88}

Please look at the following molecule next.
Lab note: record inhibition of Cn1cccc1C(C#N)c1ccccc1C#N (stereo not drawn) tested on PvdQ acylase [Pseudomonas aeruginosa LESB58].
56.5

----------
Recorded measurements of inhibition, one per entry
# Tested on: PvdQ acylase [Pseudomonas aeruginosa LESB58]
# protocol details: P. aeruginosa PvdQ acylase inhibitors, primary screen, biochemical, fluorescence, plate reader and imaging, single point (AID 488965);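 further: 0% = vehicle neutral wells and 100% = reference inhibitor wells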
# study conditions: purified PvdQ acylase, at 10 µM, stronger effect = higher value
Screen size: about 340,000 compounds; about 210 (0.062%) were called active. The entries come from a sample that favours actives as a whole.

{"compound": "COc1ccc(NS(=O)(=O)c2cc(NC(=O)CC(=O)c3ccc([N+](=O)[O-])cc3)ccc2C)cc1", "system name": "PvdQ acylase [Pseudomonas aeruginosa LESB58]", "inhibition": "-17.8% (inactive)"}
{"compound": "Cc1cc(C)cc(NC(=O)N(C)Cc2ccccc2)c1", "system name": "PvdQ acylase [Pseudomonas aeruginosa LESB58]", "inhibition": "-16% (inactive)"}
{"compound": "NS(=O)(=O)c1ccc(NC(=S)N2CCCC2)cc1", "system name": "PvdQ acylase [Pseudomonas aeruginosa LESB58]", "inhibition": "9.11% (inactive)"}
{"compound": "COc1cc(CNC2CCCCC2)c(Br)cc1OC1CCCC1", "system name": "PvdQ acylase [Pseudomonas aeruginosa LESB58]", "inhibition": "-10.3% (inactive)"}

We next turn to a different compound, shown below.
For the compound CC(=O)Nc1ccc(C(=O)OCC(=O)Nc2ccc([N+](=O)[O-])cc2C(F)(F)F)cc1 , give its reported inhibition.
-15.1% (inactive)

----------
# Test system: PvdQ acylase [Pseudomonas aeruginosa LESB58]
# protocol details: P. aeruginosa PvdQ acylase inhibitors, primary screen, biochemical, fluorescence, plate reader and imaging, single point (AID 488965);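 further: 0% = vehicle neutral wells and 100% = reference inhibitor wells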
# study conditions: purified PvdQ acylase, at 10 µM, stronger effect = higher value
Screen size: about 340,000 compounds; about 210 (0.062%) were called active. The sample as a whole holds a higher share of actives than the screen did.
measured property: inhibition (%)
Quick reminder: number only, in %, skip the unit.

Here is how some compounds turned out for inhibition.
{"compound": "CC1(C)Oc2ccc(C(=O)N3CCOCC3)cc2N(CC(=O)Nc2ccccc2)C1=O", "numeric readout": -16.2}
{"compound": "CC(=O)c1nn(-c2ccc(C)cc2)cc1C(=O)c1cccc(Br)c1", "numeric readout": -6.55}

Consider the compound COc1ccc(Cn2c(-c3ccc(Cl)cc3)c[n+]3ccccc23)cc1 tested on PvdQ acylase [Pseudomonas aeruginosa LESB58]; state its inhibition.
-9.83

Identify measured inhibition obtained with PvdQ acylase [Pseudomonas aeruginosa LESB58] for O=C(CN1CCSCC1)N/N=C/c1ccc(F)cc1F .
-7.29

State the measured inhibition (PvdQ acylase [Pseudomonas aeruginosa LESB58]) of Cc1c(C(=O)NCCN2CCOCC2)sc2nc(-c3ccc(F)cc3)cn12
-12.4

Provide measured inhibition on PvdQ acylase [Pseudomonas aeruginosa LESB58] for Cc1cccn2c(CN(C)C3CCCc4ccccc43)c(C(=O)N3CCOCC3)nc12 (configuration not stated) please.
-1.38

Fill in inhibition for Cn1cc(-c2ccccc2)cc(C#N)c1=O tested with PvdQ acylase [Pseudomonas aeruginosa LESB58].
-0.186

Retrieve inhibition on PvdQ acylase [Pseudomonas aeruginosa LESB58]; query COc1ccc(N(CC(=O)NCC2CCCO2)C(=O)CCC(=O)Nc2nccs2)c(OC)c1 (configuration not stated)
0.881
